Measured values drawn from patent US20080188506A1 for this set.

# measuredOn: interaction between p53 and MDM2 proteins (recombinant GST-tagged MDM2 / p53 peptide) (Homo sapiens)
# Sequence (Q00987 whole entry): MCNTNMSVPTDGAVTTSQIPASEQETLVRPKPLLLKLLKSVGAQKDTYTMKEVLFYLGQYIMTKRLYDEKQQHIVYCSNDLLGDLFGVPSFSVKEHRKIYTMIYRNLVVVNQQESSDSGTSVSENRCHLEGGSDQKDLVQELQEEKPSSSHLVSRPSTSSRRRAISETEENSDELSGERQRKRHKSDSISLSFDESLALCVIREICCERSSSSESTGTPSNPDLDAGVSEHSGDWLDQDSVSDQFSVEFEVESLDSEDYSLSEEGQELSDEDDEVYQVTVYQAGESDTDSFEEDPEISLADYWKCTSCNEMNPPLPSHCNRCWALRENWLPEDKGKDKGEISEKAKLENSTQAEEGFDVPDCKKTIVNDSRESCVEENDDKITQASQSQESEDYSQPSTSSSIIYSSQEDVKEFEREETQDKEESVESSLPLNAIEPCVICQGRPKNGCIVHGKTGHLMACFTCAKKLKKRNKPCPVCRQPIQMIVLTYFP
# protocolText: HTRF assay of inhibition of the p53-MDM2 interaction (GST-MDM2 / biotinylated p53 peptide)
# Type: binding
# measurementSetup: 0.2% BSA, 37° C. 1 h
Provide the reported IC50 of each item.
The reply should contain only the number, in µM.

Recorded IC50 (compound O=C1Nc2cc(Cl)ccc2[C@]12[C@@H](c1ccccc1C(F)(F)F)NCC[C@H]2c1cccc(Cl)c1 (racemic) [Example 11c] ): 6.95

Recorded IC50 (compound C=C(CC(C)C)[C@H]1n2cnnc2C[C@@H](c2cccc(Cl)c2)[C@]12C(=O)Nc1cc(Cl)ccc12 (racemic) [Example 44h] ): 1.03

Recorded IC50 (compound COc1ccc(F)cc1[C@H]1NCC[C@@H](c2cccc(Cl)c2)[C@]12C(=O)Nc1cc(Cl)ccc12 (racemic) [Example 16c] ): 2.31

Recorded IC50 (compound COc1cccc([C@H]2NCC[C@@H](c3cccc(Cl)c3)[C@]23C(=O)Nc2cc(Cl)ccc23)c1 (racemic) ): 5.21
